Where do these numbers come from? They come from patent US20060110341A1.

# system: mushroom tyrosinase (Sigma)
# procedure-summary: Tyrosinase inhibition assay
# setup-conditions: 0.5 mM tyrosine, pH 7.00, tyrosinase 60.5 U/mL; read-out: IC50 tyrosinase inhibition activity: components
pIC50: −log10 of the molar value.
Collected pIC50 values appear next to each entry.
endpoint: pIC50

compound="C=C(C)C(CC=C(C)C)Cc1c2c(c(O)c3c1OC(c1ccc(O)cc1)C3c1cc(O)cc(O)c1)C(=O)CC(c1ccc(O)cc1O)O2 (stereo not shown) [Alopecurone A]" system="mushroom tyrosinase (Sigma)" recorded_result=5.05
compound="Oc1ccc(O)cc1 [Hydroquinone, reference compound]" system="mushroom tyrosinase (Sigma)" recorded_result=4.44
compound="C=C(C)[C@H](CC=C(C)C)Cc1c(O)cc(O)c2c1O[C@H](c1ccc(O)cc1O)CC2=O [Sophoraflavone G]" system="mushroom tyrosinase (Sigma)" recorded_result=4.85
compound="C=C(C)C(CC=C(C)C)Cc1c2c(c(O)c3c1OC(c1ccc(O)cc1)C3c1cc(O)cc(O)c1)C(=O)CC(c1ccc(O)cc1O)O2 (stereo not shown) [Alopecurone B]" system="mushroom tyrosinase (Sigma)" recorded_result=5.30
